pIC50: −log10 of the molar value. Starred links: 1 amine or outer side, 2 acyl side, 3 side chain; linkers in the order of their positions; H or OH if unused. Residues, ends and D or L forms follow the SMILES beside them. CO = O=C([*:1])[*:2]
Recorded below: pIC50, system Furin (Homo sapiens, UniProt P09958).

Compound	pIC50
CN(C)C(=O)COC(=O)Cc1ccc(OC(=O)c2ccc(NC(=N)N)cc2)cc1	< 5.00

With those in mind, consider the next compound.
What does the record list as pIC50 for CC(C)[C@H](NC(=O)[C@H](CCCNC(=N)N)NC(=O)N[C@@H](Cc1ccccc1)C(=O)O)C(=O)N[C@H](C=O)CCCNC(=N)N [Antipain] ({Phe-CO}-Arg-Val-Arg-aldehyde) ?
< 5.00

The values you see were collected from paper doi:10.1101/2021.01.04.425289v1.
